molecular target: ATP-dependent Clp protease proteolytic subunit (Bacillus subtilis (strain 168)) (UniProt P80244); experiment: qHTS Assay for Activators of ClpP; settings: purified B. subtilis ClpP, FRET peptide cleavage, 20 min; series mostly up to 57.5 µM
Sequence (P80244 whole entry, looked up): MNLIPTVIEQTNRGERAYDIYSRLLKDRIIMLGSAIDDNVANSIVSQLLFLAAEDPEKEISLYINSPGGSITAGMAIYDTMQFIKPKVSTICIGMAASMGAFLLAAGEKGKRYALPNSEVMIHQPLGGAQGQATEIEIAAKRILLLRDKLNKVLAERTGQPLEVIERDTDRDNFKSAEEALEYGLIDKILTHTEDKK
Screen size: about 340,000 compounds; about 6,400 (1.9%) were called active. Inconclusive results (about 4%) are left out. Calls come from the whole dose curve; as a rule, active = well fitted falling curve with a large enough effect; inconclusive = small, poorly fitted or top-dose-only effect; inactive = no such curve, though single readings can be large or run the other way. Only a selection was taken, and actives are over-represented in it overall.
Can you answer with just one of these options? active, inactive

Completed entries (count: 5):
1) CCCNC(=O)c1cc2c(c(-c3cccc(-c4ccc(C#N)cc4)c3)n1)[C@@H](CCO)N(C(=O)CC)C2: inactive
2) COc1ccc(NC(=O)c2sc(=O)n(Cc3ccc(S(=O)(=O)N(C)C)cc3)c2C)cc1: inactive
3) CCn1cc(/C=C(\NC(=O)c2ccc(C)cc2)C(=O)NCCN2CCOCC2)c2ccccc21: inactive
4) Cc1c(C)n(Cc2ccc(Cl)cc2)c2ccc(C(=O)NCCc3ccc(S(N)(=O)=O)cc3)cc12: active
5) CCN1CCN(C(=O)Cn2nc(C)n3c(cc4c(OC)cccc43)c2=O)CC1: inactive

Turning now to a further record.
Please share the test call associated with COc1cccc(OCc2cc(/C=N/NC(=O)c3nc(Cl)c(Cl)c(N)c3Cl)ccc2OC)c1 .
inactive

====

molecular target: ATP-dependent Clp protease proteolytic subunit (Bacillus subtilis (strain 168)) (UniProt P80244); test: qHTS Assay for Activators of ClpP; conditions: purified B. subtilis ClpP, FRET peptide cleavage, 20 min; series mostly up to 57.5 µM
Among all 340,000 compounds or so, about 6,400 (1.9%) were called active. Roughly 4% stayed inconclusive and do not appear here. Calls come from the whole dose curve; as a rule, active = well fitted falling curve with a large enough effect; inconclusive = small, poorly fitted or top-dose-only effect; inactive = no such curve, though single readings can be large or run the other way. Many of the other results were omitted from the sample, so actives are more common in it than they were.
Can you answer with just one of these options? class 1 for active, class 0 for inactive

Completed entries (count: 10):
1) CCS(=O)(=O)Nc1cccc(-c2cc(-c3ccccc3)c3cc(C)ccc3n2)c1: class 1
2) Cc1cc(=O)[nH]c(SCc2ccc(Cl)cc2)n1: class 0
3) CCOC(=O)COc1cc(OCC(=O)OCC)c2c(=O)cc(-c3ccccc3)oc2c1: class 1
4) O=C(NCCN1CCOCC1)c1cc(Sc2cccc(Cl)c2)nc2ccccc12: class 0
5) O=C(Nc1ccc([N+](=O)[O-])cc1)c1cnn2c1NC(=C1CC1)C=C2C(F)F: class 0
6) CC(C)(C)CC(=O)Nc1nc(C(N)Cc2ccc(C(F)(F)F)cc2)cs1 (stereo not drawn): class 0
7) Cc1ccc(O)c(CCc2ccccc2)n1: class 1
8) COc1ccc(S(=O)(=O)N(C)C[C@H]2OCc3cnnn3CCCC(=O)N([C@H](C)CO)C[C@H]2C)cc1: class 0
9) CN(C)c1ccc(-c2nnc(-c3cccnc3)o2)cc1: class 0
10) O=C(c1cccs1)N1C[C@H](n2cc(C3CC3)nn2)[C@@H](O)C[C@@H]1c1ccccc1: class 0

Please share the test call associated with CCOC(=O)N1CCN(C(c2ccnc3ccccc23)c2nnnn2-c2c(C)cccc2C)CC1 (stereo not drawn) .
class 0

Same lookup for CSc1ccccc1-c1nnc(NC(=O)c2ccc3c(c2)OCCO3)o1 , please.
class 0

Same lookup for CCCCCCC1(C)NC(c2ccc3c(c2)OCO3)=CC(c2ccccc2O)N1 (stereo not drawn) , please.
class 0

Same lookup for COc1ccc(Cn2c(C)c(C)c(C#N)c2NC(=O)Nc2ccc(F)cc2)cc1 , please.
class 0

Same lookup for COc1ccc(CC(N)c2csc(NC(=O)NC(c3ccccc3)c3ccccc3)n2)cc1 (stereo not drawn) , please.
class 0

====

biological target: ATP-dependent Clp protease proteolytic subunit (Bacillus subtilis (strain 168)) (UniProt P80244); assay: qHTS Assay for Activators of ClpP; note: potency is the fitted concentration of half-maximal effect; note: the source files actives as falling curves though it sought activators and does not explain the sign; nearly all actives have a fitted effect of over 65% in size; details: purified B. subtilis ClpP, FRET peptide cleavage, 20 min; series mostly up to 57.5 µM
Hit rate of the full screen: of about 340,000 compounds, about 6,400 (1.9%) were called active. Roughly 4% stayed inconclusive and do not appear here. Shown is part of a subset that was picked to be rich in actives.
quantity-kind: Potency

See these solved cases before continuing.
1. Cc1ccccc1OCC(=O)N(Cc1cccc(F)c1)C1CCS(=O)(=O)C1 (stereo not given): inactive
2. CS(=O)(=O)c1ccc(-c2nnc(NC(=O)c3ccc4c(c3)OCCO4)o2)cc1: inactive
3. CC(=O)Nc1ccc(NC(=O)CN2CCCC(C)C2)c(Cl)c1 (stereo not given): inactive
4. COCCn1c(=NC(=O)c2ccccc2[N+](=O)[O-])sc2cc(S(C)(=O)=O)ccc21: inactive

Which Potency reading was recorded for the compound CCN(C(=O)COc1cccnc1[N+](=O)[O-])C1CCS(=O)(=O)C1 (stereo not given) ?
28.2 µM (active)

Same lookup for Cc1ccc(-c2cnc(C(O)c3cc(Cl)cc(Cl)c3)[nH]2)cc1 (stereo not given) , please.
inactive

Same lookup for CN(C(=O)COC(=O)Cc1ccccc1[N+](=O)[O-])C1CCS(=O)(=O)C1 (stereo not given) , please.
inactive

Same lookup for Cc1cc(NC(=O)CN2CCCC(C)C2)n(-c2nc3ccccc3s2)n1 (stereo not given) , please.
17.8 µM (active)

Same lookup for O=C(CSc1nc(Nc2ccc(F)c(F)c2)c2ccccc2n1)c1ccc(Cl)cc1 , please.
inactive

Same lookup for CCN(CC)c1ccc(/C=C/c2c(C)cnc3ccc(C)cc23)cc1 , please.
inactive

====

biological target: ATP-dependent Clp protease proteolytic subunit (Bacillus subtilis (strain 168)) (UniProt P80244); assay: qHTS Assay for Activators of ClpP; note: the source files actives as falling curves though it sought activators and does not explain the sign; nearly all actives have a fitted effect of over 65% in size; conditions: purified B. subtilis ClpP, FRET peptide cleavage, 20 min; series mostly up to 57.5 µM
The whole screen tested about 340,000 compounds, of which about 6,400 (1.9%) were called active. Inconclusive results (about 4%) are left out. The call rests on the fitted dose curve; in most records, active means well fitted falling curve with a large enough effect; inconclusive means small, poorly fitted or top-dose-only effect; inactive means no such curve, though single readings can be large or run the other way. The sample as a whole holds a higher share of actives than the screen did.
Can you answer with just one of these options? t = active, f = inactive

Completed entries (count: 3):
1. COc1ccc2nc(SCc3ccccc3)nc(C)c2c1: f
2. CCc1nc2ccc(C(=O)NCc3ccc(OC)cc3)cn2c1N(CC)Cc1cccc(Br)c1: f
3. O=C(O)CCC(=O)N(Cc1ccccc1)Cc1ccccc1: f

Please share the test call associated with CCOC(=O)N1CCC(NC(=O)CCc2cn(C)c3ccccc23)CC1 .
f

Same lookup for COCCNc1nc(NCc2ccc(NC(C)=O)cc2)c2sccc2n1 , please.
f

====

target: ATP-dependent Clp protease proteolytic subunit (Bacillus subtilis (strain 168)) (UniProt P80244); assay: qHTS Assay for Activators of ClpP; note: the source files actives as falling curves though it sought activators and does not explain the sign; nearly all actives have a fitted effect of over 65% in size; conditions: purified B. subtilis ClpP, FRET peptide cleavage, 20 min; series mostly up to 57.5 µM
About 6,400 (1.9%) of roughly 340,000 compounds were called active. About 4% were inconclusive and are not listed. Calls come from the whole dose curve; as a rule, active = well fitted falling curve with a large enough effect; inconclusive = small, poorly fitted or top-dose-only effect; inactive = no such curve, though single readings can be large or run the other way. The list comes from a sample in which actives are over-represented; it also holds close analogues and randomly drawn compounds.
Can you answer with just one of these options? yes (1) for active, no (0) for inactive

1) CCN(CC)CCn1c(N)c(S(=O)(=O)c2ccccc2)c2nc3ccccc3nc21: no (0)
2) Cn1c(=O)c2cc(NC(=O)NCCc3cccs3)ccc2n1Cc1cccc(C(F)(F)F)c1: no (0)
3) OC[C@@H]1CN(Cc2cccs2)C[C@H](n2cnc3c(NC4CCCC4)ncnc32)O1: no (0)
4) Nc1ncnc2c1ncn2[C@@H]1O[C@H](CNC(=O)[C@H](N)Cc2cccnc2)[C@@H](O)[C@H]1O: no (0)
5) Cc1ccc(-n2nc(C)c(/C=N/NC(=O)c3cccs3)c2Cl)cc1: no (0)
6) CCC(=O)Nc1ccc(C)cc1-c1nc2ccccc2n(Cc2ccccc2)c1=O: no (0)
7) CC(Oc1ccccc1[N+](=O)[O-])C(=O)N/N=C/c1ccoc1 (configuration not stated): no (0)
8) Cc1ccc(C(=O)/C=C/c2c(C)nn(-c3ccccc3)c2Cl)cc1: yes (1)
9) c1ccc(Cc2c(-c3ccco3)nc3c4ccccc4ccn23)cc1: no (0)
10) COc1ccc(CCNC(=O)c2nn(C)c3c2CSc2ccccc2-3)cc1OC: no (0)

Turning now to a further record.
Please share the test call associated with CCCC(=O)Nc1ccc(C(=O)N/N=C/c2ccc[nH]2)cc1 .
no (0)

====

target: ATP-dependent Clp protease proteolytic subunit (Bacillus subtilis (strain 168)) (UniProt P80244); test: qHTS Assay for Activators of ClpP; note: the source files actives as falling curves though it sought activators and does not explain the sign; nearly all actives have a fitted effect of over 65% in size; conditions: purified B. subtilis ClpP, FRET peptide cleavage, 20 min; series mostly up to 57.5 µM
In all, about 340,000 compounds went through this assay and about 6,400 (1.9%) were called active. Inconclusive results (about 4%) are left out. Calls follow the shape of the dose curve; as a rule, active = well fitted falling curve with a large enough effect; inconclusive = small, poorly fitted or top-dose-only effect; inactive = no such curve, though single readings can be large or run the other way. The list comes from a sample in which actives are over-represented; it also holds close analogues and randomly drawn compounds.
Can you answer with just one of these options? active, inactive

Please share the test call associated with CC(C)C[C@H]1CNC(=S)N1C[C@H]1CCCN1C[C@H](Cc1ccc(O)cc1)N1C[C@H](Cc2ccc(O)cc2)N(CC2CCCCC2)C1=S .
inactive

Same lookup for Cc1ccc([C@@H]2CC(=O)[C@@H]3CN(S(=O)(=O)c4ccc(C)cc4)[C@H](c4ccccc4F)C[C@@H]3N2S(=O)(=O)c2ccc(Cl)cc2)cc1 , please.
inactive

Same lookup for Cc1cccc(C)c1-n1nnnc1C1(C)CCC(=O)N1CCOc1ccccc1 (stereo not given) , please.
inactive

Same lookup for O=C(COC(=O)CCCN1C(=O)c2cccc3cccc(c23)C1=O)NC1CCS(=O)(=O)C1 (stereo not given) , please.
active

Same lookup for Cc1cc2[nH]ncc2cc1NC(=S)NC(=O)c1ccccc1 , please.
inactive

Same lookup for COc1cccc(NC(=O)Nc2ccc(F)cc2)c1 , please.
inactive

Same lookup for CCOc1ccc(Cl)cc1-c1cc(C(=O)NCc2cccs2)[nH]n1 , please.
inactive

Same lookup for CC(=O)N1Cc2cc(C(=O)NCc3cccc(F)c3)nc(-c3cccc(C4=CCCCC4)c3)c2[C@H]1CCO , please.
inactive

Same lookup for Cc1cccc(NC(=S)Nc2ccc3cn[nH]c3c2)c1 , please.
active

Same lookup for CCOC(=O)c1cc2c(n(-c3ccc(C)cc3)c1=O)CCCC2=O , please.
active

Same lookup for CC(C)OC(=O)CC(=O)CC(O)c1cccc([N+](=O)[O-])c1 (stereo not given) , please.
inactive

Same lookup for CCc1nc2c(OCc3ccc(Cl)cc3Cl)cccn2c1N(C)C(=O)C(C)C , please.
inactive

Same lookup for CCOC(=O)c1ccc(NC(=O)c2cc(=O)[nH]c3ccccc23)cc1 , please.
inactive

Same lookup for CCOC(=O)c1ccc(COC(=O)c2cc(=O)[nH]c3ccccc23)o1 , please.
active

Same lookup for CCc1nc2ccc(C(=O)N3CCN(c4cc(Cl)ccc4C)CC3)cc2nc1CC , please.
inactive

Same lookup for COc1ccc2nc(C)cc(Nc3cccc(C(=O)O)c3)c2c1 , please.
inactive

Same lookup for COc1cccc(-c2cc3nc(NCc4ccccc4OC)n(C)c(=O)c3s2)c1 , please.
inactive

Same lookup for CCN(Cc1ccccc1)C(=O)c1cn(-c2cccc(OC)c2)c(=O)c2ccccc12 , please.
inactive

Same lookup for CN(C)c1ccc(C=Nc2ccc(/C=C/c3ccnc4ccccc34)cc2)cc1 , please.
inactive

Same lookup for Fc1cccc(Cc2c(-c3ccc(Cl)cc3)nc3ccc(Cl)cn23)c1 , please.
inactive
